Data credit: the supplement of paper PMC6555819

system: LXRa homodimer (NR concentration 270 nM); experiment: PBM binding z-score (relative to random genomic background probes); higher = stronger binding; sequences stand for … in GC…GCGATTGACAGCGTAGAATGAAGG
Reported PBM binding z-score by item:

| residue.sequence | PBM binding z-score |
| --- | --- |
| CCAGAGAGGTGAAAGGTAACTCAGTCTGGTACGC | -0.386 |
| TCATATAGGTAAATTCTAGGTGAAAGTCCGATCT | 0.27 |
| GGAACGATGGCAAAGTTGATAGCATCTGTCGACG | -0.475 |
| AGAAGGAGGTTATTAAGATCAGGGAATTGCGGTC | 0.522 |
| CGTCCAAGGTCATAGGAGGTCAGTGCAGACAGAT | 5.11 |
| GGAACGAGGCCAAGTTGATAGCAGAGTTTGATGG | -0.768 |
| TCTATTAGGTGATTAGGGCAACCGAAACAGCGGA | 0.0646 |
| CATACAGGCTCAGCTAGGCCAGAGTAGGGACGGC | -0.674 |
| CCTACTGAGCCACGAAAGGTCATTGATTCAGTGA | 5.31 |
| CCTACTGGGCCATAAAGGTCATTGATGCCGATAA | 3.57 |
| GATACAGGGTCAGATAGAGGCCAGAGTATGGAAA | 0.138 |
| CCTTACGGGTCACTCCAGGTTATACCATCGGAGT | 2.1 |
| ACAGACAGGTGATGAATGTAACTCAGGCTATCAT | 0.164 |
| CGAACTAGGTCATCCAGGACAGTGAGTACATTGA | 0.741 |
| TCTGCTAGGTCAACGATGGTCCGCTAATCTGCTA | -0.377 |
| TTACCAAGGTGAGCTGAGGTCGTTGGTCCAACTC | -0.436 |
| TTACCAAGGCGAAGGTCGTTGATCCCTCTGTAGA | -0.229 |
| CCTTACGGGTCACTGACAGGTTATAACATTTGGA | 0.519 |
| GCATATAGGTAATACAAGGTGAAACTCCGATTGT | 0.554 |
| CCAACTGGGCCATCAGGTCATTGATATCAACGTT | 0.987 |
| GCTAGCAGGCCATTTGGGTCACTTAATGACGGGC | -0.464 |
| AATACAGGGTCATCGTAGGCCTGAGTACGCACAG | 1.91 |
| CGTCAAAGTTCAGGGTAACGTAACAGAAAGCAGC | 1.23 |
| CCTCGGAGGACAGCAGGAGGTCAGAGCTGCCAGA | 0.292 |
| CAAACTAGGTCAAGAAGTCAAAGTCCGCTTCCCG | 0.599 |
| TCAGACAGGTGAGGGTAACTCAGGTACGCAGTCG | -0.144 |

* * *

test system: RARa:RXR (NR concentration 270 nM, RXRa partner concentration 90 nM); assay: PBM binding z-score (relative to random genomic background probes); higher = stronger binding; sequences stand for … in GC…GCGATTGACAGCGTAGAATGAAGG
Mark false (0) for PBM binding z-score values under 0.9, and true (1) for everything at or above.

| residue.sequence | classification |
| --- | --- |
| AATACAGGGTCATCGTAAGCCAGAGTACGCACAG | true (1) |
| TCGAGTAGGTTAGGGGCATTCACAATGGCGTCGA | false (0) |
| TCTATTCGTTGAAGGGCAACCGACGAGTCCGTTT | true (1) |
| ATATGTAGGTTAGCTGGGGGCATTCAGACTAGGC | true (1) |
| TGAATGAGGTTAAAGATCAGGAAACGTGGCGTCG | true (1) |

* * *

system: RARa homodimer (NR concentration 270 nM); experiment: PBM binding z-score (relative to random genomic background probes); higher = stronger binding; sequences stand for … in GC…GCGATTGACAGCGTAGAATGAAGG
PBM binding z-score of 0.5 or higher: met. Under 0.5: not met.

| residue.sequence | measured.on | classification |
| --- | --- | --- |
| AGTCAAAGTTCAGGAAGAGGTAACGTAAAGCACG | RARa homodimer (NR concentration 270 nM) | met |
| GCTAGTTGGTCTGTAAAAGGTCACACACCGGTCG | RARa homodimer (NR concentration 270 nM) | met |
| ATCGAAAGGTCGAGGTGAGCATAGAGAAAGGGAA | RARa homodimer (NR concentration 270 nM) | not met |
| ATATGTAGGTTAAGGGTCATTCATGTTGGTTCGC | RARa homodimer (NR concentration 270 nM) | met |
| GCGACTGGGGCCAAGCAGGTTACCATAAGGTTGG | RARa homodimer (NR concentration 270 nM) | not met |
| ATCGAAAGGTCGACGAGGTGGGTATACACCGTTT | RARa homodimer (NR concentration 270 nM) | not met |
| ATCTCTAGGTAAAAGTTCAGTGACTCCCGAGGAT | RARa homodimer (NR concentration 270 nM) | met |
| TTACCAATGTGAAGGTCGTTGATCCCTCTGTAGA | RARa homodimer (NR concentration 270 nM) | not met |
| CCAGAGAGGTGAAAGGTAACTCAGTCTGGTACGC | RARa homodimer (NR concentration 270 nM) | met |
| TCGAGTAGGTTACCAATGGGGCTTTCAGCTTTCT | RARa homodimer (NR concentration 270 nM) | not met |
| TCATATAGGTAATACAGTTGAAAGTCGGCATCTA | RARa homodimer (NR concentration 270 nM) | met |
| TAGCCTAGTTCAGATCGGGCCAGTATACGCTATA | RARa homodimer (NR concentration 270 nM) | not met |

* * *

test system: THRa homodimer (NR concentration 90 nM); assay: PBM binding z-score (relative to random genomic background probes); higher = stronger binding; sequences stand for … in GC…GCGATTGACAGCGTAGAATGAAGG
measured.metric: PBM binding z-score

| residue.sequence | measured.metric | assay.result |
| --- | --- | --- |
| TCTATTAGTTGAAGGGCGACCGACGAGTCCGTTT | PBM binding z-score | 0.203 |
| CGTCAAAGTTCAAGGTAACTTAACAGAAAGCAGC | PBM binding z-score | 0.957 |
| ATATGTAGGTTACATACGGGTCATTCAGGCTATG | PBM binding z-score | 0.593 |
| ATCTCTGGGTAAAGATAGTTCAGTGAATGCAAAT | PBM binding z-score | -0.18 |
| CAGCCTAGGTCAGGCCCAGTATAGGAGGAACGTT | PBM binding z-score | 0.183 |
| CCTACTGGGCCAAAAAGGTCCTTGATGCCGATAA | PBM binding z-score | -0.242 |
| GCGACTAGGGCAAAGCAGGTTACCATAAGGTTGG | PBM binding z-score | 0.052 |
| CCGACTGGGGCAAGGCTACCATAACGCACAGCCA | PBM binding z-score | -0.4 |
| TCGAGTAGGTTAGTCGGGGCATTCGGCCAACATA | PBM binding z-score | -0.521 |
| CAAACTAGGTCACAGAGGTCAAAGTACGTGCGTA | PBM binding z-score | 2.64 |
| ATATGTAGGTTAGCTGCGGTCATTCAGACTAGGC | PBM binding z-score | 0.202 |
| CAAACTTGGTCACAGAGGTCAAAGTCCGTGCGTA | PBM binding z-score | 1.36 |
| TATACAGGGTCAAAGACCAGAGTACGAATGTCGA | PBM binding z-score | 0.651 |
| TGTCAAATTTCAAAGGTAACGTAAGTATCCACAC | PBM binding z-score | -0.123 |
| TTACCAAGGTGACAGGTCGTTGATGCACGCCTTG | PBM binding z-score | 1.19 |
| ATCTCTAGGAAAAAGTTCAGTGAATCCCGAGGAT | PBM binding z-score | -0.127 |
| CCTACTGGGCCAAAAAGGTCATTAATGCCGATAA | PBM binding z-score | 0.449 |
| CCTATTAGTTGTCCATAAGGGCAACCGAAGCTCG | PBM binding z-score | 1.64 |
| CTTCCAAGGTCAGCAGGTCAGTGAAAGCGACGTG | PBM binding z-score | 2.79 |
| CGTCCAAGGTCAATCCTAGGTCAGTGAAAGCATT | PBM binding z-score | 3.63 |
| AATACAGGTTCATCGTAGGCCAGAGTACGCACAG | PBM binding z-score | 0.0172 |
| CGTCAAATTTCAACTAAGGTAACGTAAAGCACGC | PBM binding z-score | 1.89 |
| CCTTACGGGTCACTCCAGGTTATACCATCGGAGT | PBM binding z-score | 0.681 |
| TCTAGTTGGTTAAAGGTCACACACTCGAAATGCG | PBM binding z-score | 2.69 |
| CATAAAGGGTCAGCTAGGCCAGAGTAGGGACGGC | PBM binding z-score | 0.204 |
| TAGCGTAGGTCATTCAGGGGCCAGTATAGAAAGC | PBM binding z-score | -0.427 |
